test: Area under the curve was determined; assay type: ADME; settings: rat
MEASUREMENT TYPE: AUC (µM·h)
Give a bare numeral; the unit µM·h is implied.

Request: Dear colleague, I am looking for the recorded AUC of the following compound: `Cc1c[nH]c(-c2nnn(-c3cc(F)cc(C#N)c3)n2)n1`
Response: 3.4

* * *

assay: Plasma clearance was determined; assay type: ADME, organism-based; conditions: rat
MEASUREMENT TYPE: clearance
// return the numeric value with its unit appended

Request: Dear colleague, I am looking for the recorded clearance of the following compound: `Cc1c[nH]c(-c2nnn(-c3cc(F)cc(C#N)c3)n2)n1`
Response: 2.4 L/h/kg
